Listing of log10 of IC50 toward Subcomponent "r" of Human Complement Component 1 (h C1r) (Homo sapiens, UniProt P00736), each taken from a published source.
Values are log10 of IC50 in nM.

Solved cases (2 shown):
N=C(N)C=Cc1ccc(OC(=O)C2CC2)cc1: 3.30
N=C(N)C=Cc1ccc(OC(=O)c2ccc(Cl)cc2)cc1: 2.70

The reported log10 of IC50 of the compound N=C(N)c1ccc2cc(OC(=O)c3ccc(NC4=NC5CCCCC5N4)cc3)ccc2c1 (stereo not drawn) was 3.95

The reported log10 of IC50 of the compound "N=C(N)c1ccc2cc(OC(=O)c3ccc4[nH]cnc4c3)ccc2c1" was 2.48

The reported log10 of IC50 of the compound "CC(=O)Oc1ccc(C=CC(=O)Oc2ccc(C(=N)N)cc2C(=O)c2ccccc2)cc1" was 3.30

The reported log10 of IC50 of the compound "Cc1ccc(C(=O)Oc2ccc3cc(C(=N)N)ccc3c2)s1" was 2.85

The reported log10 of IC50 of the compound "CC=CC=CC(=O)Oc1ccc(C(=N)N)cc1C(=O)OC" was 3.70
